- TEST SUMMARY: NCI Yeast Anticancer Drug Screen. Data for the cln2 rad14 strain (AID 165);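 note: 0% = growth equal to vehicle treated cultures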
- CONDITION DETAILS: S. cerevisiae cln2 rad14 strain, at 50.0 µM, hits give high values
Compounds without any hit were thinned out: in the full panel of roughly 79,000, 15% have a hit. Calls of active or inactive are those of the source. Cut-off read from the data, not from the text of the source: active = growth inhibition above about 70%; inactive = the rest.
MEASUREMENT KIND: growth inhibition

COMPOUND	MEASUREMENT KIND	RECORDED VALUE
CC(C)(C)C(=O)Cn1nnnc1C(=O)C(C)(C)C	growth inhibition	-36.9% (inactive)
CCOC(=O)/C(C)=C(/C)Nc1ccccc1	growth inhibition	-28.9% (inactive)
COc1cccc2c1[C@]1(O)C(O)CCCC21 (stereo partly specified)	growth inhibition	5.95% (inactive)
CCCCCCCCCCCCCCCCCC(=O)OCC1OC(OC)C(NC(=O)N(CCCl)N=O)C(O)C1O (stereo unspecified)	growth inhibition	13.7% (inactive)
O=C(O)CNC(=O)NC(Cc1ccccc1)C(=O)O (stereo unspecified)	growth inhibition	71.5% (active)
CC(/C=N/Nc1ccccc1)=N\N=c1/scc(-c2ccc(Cl)cc2)n1-c1ccc(Cl)cc1	growth inhibition	-0.2% (inactive)

---

growth inhibition listing for selected compounds.
- TEST SUMMARY: NCI Yeast Anticancer Drug Screen. Data for the cln2 rad14 strain (AID 165);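 note: 0% = growth equal to vehicle treated cultures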
- CONDITION DETAILS: S. cerevisiae cln2 rad14 strain, at 50.0 µM, hits give high values
The panel holds about 79,000 compounds, 15% with a hit somewhere; the sample as a whole holds those more often.

COMPOUND	UNIT TEXT	growth inhibition
c1ccc(C2Nc3ccccc3NC2c2ccccc2)cc1 (stereo not drawn)	%	20.9
Cn1cc(-c2ccccc2)cc1-c1ccccc1	%	4.9
CCOC(=O)c1c(Br)c(-c2ccc([N+](=O)[O-])cc2)c(Br)n1C	%	-0.15
CC(=O)OC1CC2CC1C1CC=CC21 (stereo not drawn)	%	34.1
COc1cc(CCl)cc(OC)c1OC	%	-21.9
COc1ccc2c(c1OC(C)=O)C1=CC(OC(C)=O)=CCC13CCN(C)C3C2 (stereo not drawn)	%	-4.7
O=C1c2[nH]c3ccccc3c2CN1CCc1ccccc1	%	-14.5
O=C(O)/C(Br)=C(\Br)c1ccccc1	%	14.4
C=CCSc1nc2ccc(N3C(=O)C4C5C=CC(C5)C4C3=O)cc2s1 (stereo not drawn)	%	-17.6
O=C(C[n+]1ccccc1-c1ccccn1)c1ccc(-c2ccccc2)cc1	%	-14.7
CCOC(=O)[C@@]12[C@H](N3C(=O)c4ccccc4C3=O)C(=O)N1CCS2(=O)=O	%	-22.9
N#C/C(=C\c1ccco1)C(N)=O	%	5.25
CC12CC(=O)C3C(CCC4=CC(=O)CCC43C)C1CC=C2CC(=O)O (stereo not drawn)	%	-3.85
CCC(=O)C(OC(C)=O)C(OC(C)=O)C(OC(C)=O)C(COC(C)=O)OC(C)=O (stereo not drawn)	%	27.8
CC(C)c1ccccc1OC(=O)c1cccc(Br)c1	%	-23.1
N#Cc1ccccc1NC(=O)C(=O)C(C(=O)c1ccccc1-c1ccccc1)C1OC(=O)c2ccccc21 (stereo not drawn)	%	-43
Cn1ccc2c3ccsc3ccc21	%	-5.5
CC(C)N(C=C(C#N)C#N)C(C)C	%	-57.5
N=C(N)SCc1cccc(Cl)c1	%	-82.1
N#CC1C2CCC(C2)C1CCCN (stereo not drawn)	%	-81.9
CN1CCCCC1C[CH2][Sn]([c]1ccccc1)([c]1ccccc1)[c]1ccccc1 (stereo not drawn)	%	99.2
Cc1cc(Cl)c(Cl)cc1NC(=O)c1ccccc1Cl	%	-9.25
Cc1cccc(Cl)c1NC(=O)NCCCN1CCOCC1	%	14.1
Clc1ccc(Nc2ncco2)cc1Cl	%	-0.8
O=C(O)Cc1ccc2ccccc2c1	%	3.6
COc1cccc(NC(=O)Nc2ccccc2Cl)c1	%	-19.2
CCOC(=O)C(C)(C(=O)OCC)c1c[n+]([O-])c2ccccc2c1[N+](=O)[O-]	%	-22.4
CCOc1ccc(Nc2nc(C(Cl)(Cl)Cl)cc(C(Cl)(Cl)Cl)n2)cc1CN(CC)CC	%	98.1
O=C(/C=C\c1ccc(Cl)cc1)c1ccccc1	%	-6.4
O=C1CCC2=C(N1)C(=O)C=CC2=O	%	-32
Nc1ccccc1CCO	%	13.2
CC(C)(CO[C@H]1C[C@H]2CC[C@@]1(C)C2(C)C)[N+](=O)[O-]	%	-17.4
[Mn+2].[Mn+2].c1ccc2c(c1)-c1nc-2nc2[n-]c(nc3nc(nc4[n-]c(n1)c1ccccc41)-c1ccccc1-3)c1cc3c4nc5nc(nc6[n-]c(nc7nc(nc([n-]4)c3cc21)-c1ccccc1-7)c1ccccc61)-c1ccccc1-5	%	-21.2
C=CC1=C(C)C2=NC1=CC1=NC(=CC3=C(C)C4=C(O)[C@H](C(=O)OC)C(=C5NC(=C2)[C@@H](C)[C@@H]5CCC(=O)O)C4=N3)C(CC)=C1C	%	28.1
Cc1c(C(=O)Nc2ccccc2)nnn1-c1ccnc2cc(C(F)(F)F)ccc12	%	-4.05
O=Cc1ccnc2ccccc12	%	4
CCCCCCCC(=O)OC(CC)CCCC (stereo not drawn)	%	8.35
O=C(O)CSc1n[nH]c(-c2ccccc2)n1	%	2.55
CC(=O)Nc1ccc(F)cc1	%	4
CCOC(=O)/C=C1\NCCc2ccccc21	%	24
O=C1NCC(C2CC2)(C2CC2)O1	%	-34
CC(Cc1ccco1)C(=O)O (stereo not drawn)	%	-14
CCc1ccc(C(=O)O)cc1S(=O)(=O)Cl	%	-9.4
O=S1(=O)CCC(N(N=C2CCCCC2)c2ccccc2)C1 (stereo not drawn)	%	96.8
Cc1ncc(COP(=O)(O)O)c(C)c1O	%	-33.6
Nc1ccc(C(=O)Nc2ccccn2)cc1	%	-27.6
Oc1c(Br)cc(Br)cc1/C=N/N=C/c1cc(Br)cc(Br)c1O	%	0.2
O=C(Nc1ccccc1)n1cc(-c2ccccn2)c(N2CCOCC2)n1	%	-64.5

---

- TEST SUMMARY: NCI Yeast Anticancer Drug Screen. Data for the cln2 rad14 strain (AID 165);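 note: 0% = growth equal to vehicle treated cultures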
- CONDITION DETAILS: S. cerevisiae cln2 rad14 strain, at 50.0 µM, hits give high values
The panel holds about 79,000 compounds, 15% with a hit somewhere; the sample as a whole holds those more often. Calls of active or inactive are those of the source. Cut-off read from the data, not from the text of the source: active = growth inhibition above about 70%; inactive = the rest.
growth inhibition listing for selected molecules.

MOLECULE	growth inhibition
COc1cccc2c1C(=O)c1c(O)c3c(c(O)c1C2=O)CC(O)(C(C)=O)CC3O (centres undefined)	17.1% (inactive)
O=C(/C=C/c1ccc2c(c1)OCO2)C1CC1	8.25% (inactive)
C=CCOC(=O)NCC(=O)NC(C)C(N)=O (centres undefined)	2.55% (inactive)
O=c1ccn(C2OC(CO)C(O)C2Cl)c(=O)[nH]1 (centres undefined)	10.2% (inactive)
C/C(=C1/N=C(c2cc([N+](=O)[O-])ccc2Cl)N(c2ccc(Br)cc2)C1=O)c1cc2ccccc2oc1=O	14.1% (inactive)
COc1ccc(/C=C/c2ccc3ccccc3[n+]2C)cc1OC	21.3% (inactive)
CN1Cc2ccccc2[C@H]2C(c3ccccc3)=NN(c3ccccc3)[C@H]21	9.6% (inactive)
Cc1c2ccccc2c(CN(C)CC(=O)NCC(=O)NCC(=O)O)c2ccccc12	97.5% (active)
C=CCn1c(=S)sc2c(=O)[nH]cnc21	22.3% (inactive)
COc1ccc(/C=C2\N=C(c3cc(OC)c(OC)c(OC)c3)OC2=O)cc1Br	-0.4% (inactive)
O=Nc1ccc(O)cc1Cc1ccccc1	-5.3% (inactive)
CC(C)CC1NC(=O)OC1=O (centres undefined)	-17.6% (inactive)
COc1ccc(N2C(=O)C3c4[nH]c5ccccc5c4C4CCCCCCCCCC4C3C2=O)cc1 (centres undefined)	-39.6% (inactive)
C=CCOC(=O)CCC(C#N)(C#N)CCC(=O)OCC=C	-25.8% (inactive)
Oc1cc(CN2COc3ccccc32)c(O)cc1CNC1CCCCC1	62.5% (inactive)
CC1(C)CC(=O)C2(C)C(C1O)C2C1C2C(O)C(C)(C)CC(=O)C21C (centres undefined)	-6.75% (inactive)
CCSCCCSCCSCC	43.7% (inactive)
CC#CC(O)(C(=O)OC1CCC2CCC1N2C)C1CCCC1 (centres undefined)	6.2% (inactive)
O=C(c1ccccc1)c1c(O)c2ccccc2oc1=O	-16.8% (inactive)
O=C(Nc1ccc(Cl)cc1)/C(Cc1cccc[n+]1[O-])=N\Nc1ccc([N+](=O)[O-])cc1[N+](=O)[O-]	-7.15% (inactive)
Cc1ccc(CN2CCCCC2)o1	1.1% (inactive)
O=c1[nH]c(-c2ccncc2)nnc1-c1ccc(Cl)cc1	-26.9% (inactive)
NC(N)=Nc1ccc(Sc2ccc(N=C(N)N)cc2)cc1	-19.6% (inactive)
COC(=O)c1ccc(NCC2=CC(=O)c3ccccc3C2=O)cc1	48.4% (inactive)

---

growth inhibition listing for selected compounds.
- TEST SUMMARY: NCI Yeast Anticancer Drug Screen. Data for the mlh1 rad18 strain (AID 175)
- CONDITION DETAILS: S. cerevisiae mlh1 rad18 strain growth inhibition; at 50.0 µM; hits give high values
Compounds without any hit were thinned out: in the full panel of roughly 79,000, 15% have a hit.
MEASUREMENT KIND: growth inhibition (%)

COMPOUND	MEASUREMENT KIND	UNIT TEXT	RECORDED VALUE
CN1CCN(c2ccncc2S(=O)(=O)N2CCN(C)CC2)CC1	growth inhibition	%	-2.5
COC(=O)C1CCCC(=O)C1C(=O)OC (stereo not given)	growth inhibition	%	2.05
Cc1ccc(-c2n[nH]c(=O)n2N2C(=O)C=CC2=O)cc1	growth inhibition	%	-59.9
Nc1nc(C(F)(F)F)nc(N)c1N	growth inhibition	%	14.6
CN1C/C(=C\c2ccc(C(=O)O)cc2)C(=O)/C(=C/c2ccc(C(=O)O)cc2)C1	growth inhibition	%	19.7
CC(=O)N/C(=C/c1ccccc1)C(=O)NC(C)(C)C	growth inhibition	%	0.05
CCCCCCCCCCCCCCCCCCNC(=S)N(C)C	growth inhibition	%	5.05
COc1ccc(NC(=O)C(=O)C2CNC(=O)NC2=O)c(OC)c1 (stereo not given)	growth inhibition	%	-17.3
CSc1cc(=O)n(C2OC(CO)C(O)C2O)c(=O)[nH]1 (stereo not given)	growth inhibition	%	25.7
CCOC(=O)C(/C=N/C(=S)Nc1c(C)cccc1C)=C(/O)c1ccccc1	growth inhibition	%	-33.4
COc1cc([N+](=O)[O-])ccc1N=Cc1cccs1	growth inhibition	%	27.9
CCCCOc1ccc(C(=O)C(C(c2ccccc2)N2CCOCC2)N2CCOCC2)cc1 (stereo not given)	growth inhibition	%	9.2
O=c1/c(=C/c2ccccc2[N+](=O)[O-])sc2nnc(-c3cccnc3)n12	growth inhibition	%	1.4
Brc1ccncc1	growth inhibition	%	-13.6
CCCCCCCCNc1ncnc2[nH]ncc12	growth inhibition	%	13.9
Cc1ccc(-c2cc(-c3cc(-c4ccc(C)cc4)nc(N)n3)nc(N)n2)cc1	growth inhibition	%	-13
O=c1cc(-c2ccccc2)c2ccccc2[nH]1	growth inhibition	%	-1
O=C(NC[N+]12CCO[B-]1(c1ccc(Cl)cc1)OCC2)c1ccccc1O (stereo not given)	growth inhibition	%	56.3
CS(=O)(=O)CC(O)(c1ccccc1)c1ccccc1	growth inhibition	%	28.1
C/C(CC(=O)Nc1ccc(Cl)c(Cl)c1)=N/NC(=O)C[N+](C)(C)C	growth inhibition	%	-6.1
CCCCCCCCCCCCOc1ccc(Br)cc1	growth inhibition	%	8.7
NC(Cc1cc(I)c(Oc2ccc(O)c(I)c2)c(I)c1)C(=O)O (stereo not given)	growth inhibition	%	33.4
Cc1ccc(C)c(NC(=O)NCc2ccc(Cl)cc2)c1	growth inhibition	%	10.2
O=C(/C=N/O)Nc1cccc(Cl)c1I	growth inhibition	%	10.4
Cc1cc(Br)c(NC(=S)SCc2ccc(Cl)cc2)cc1C	growth inhibition	%	95.8
